tested on: SW-620; test: NCI tumour cell line growth inhibition, 48 h
Active and inactive are the calls of the source. Cut-off read from the data, not from the text of the source: active = GI50 up to about 1.1 µM and inactive = higher.
Respond using exactly one of the listed classes: Y = active, N = inactive

>  <Compound>
COc1ccc(NC(=O)CSc2nnc(-c3ccc(/N=C\c4ccc(Cl)cc4)cc3)o2)cc1

>  <Label Class>
N

$$$$
>  <Compound>
COc1ccc(C[C@H]2NC[C@H](O)[C@H]2OC(C)=O)cc1

>  <Label Class>
Y

$$$$
>  <Compound>
CCCCCCCCCCCC(=O)OC(COC(N)=O)COc1ccc(Cl)cc1 (stereo not given)

>  <Label Class>
N

$$$$
>  <Compound>
COc1ccc(NC(=O)C(=O)Cc2nc3ccc([N+](=O)[O-])cc3nc2O)c(OC)c1

>  <Label Class>
N

$$$$
>  <Compound>
O=c1c2ccccc2sc2nc(CCl)nn12

>  <Label Class>
N

$$$$

[Q] // outcome(item) with item = "O=C(/C=C/c1ccccc1)c1cc(CN2CCOCC2)c(O)c(CN2CCOCC2)c1"
[A] N

[Q] In this assay, the call recorded for "Cc1cccc2c(N)c3cccc(C(=O)NCC[N+](C)(C)Cc4ccc(S(C)(=O)=O)cc4)c3nc12" was what?
[A] N

====

system: COLO 205; test: NCI tumour cell line growth inhibition, 48 h
Active and inactive are the calls of the source. No stated cut-off is given here; in the data, active = GI50 up to about 1.1 µM and inactive = higher.
A correct response names exactly one class from Yes (active), No (inactive)

>  <Compound>
CCN(CC)CCSc1c2ccccc2nc2cc(NCC(=O)Nc3ccccc3-c3ccccc3NC(=O)CNc3ccc4c(SCCN(CC)CC)c5ccccc5nc4c3)ccc12

>  <Label Class>
No

$$$$
>  <Compound>
CC1=C(N2CC2)C(=O)c2nc3n(c2C1=O)CCC3O (stereo not given)

>  <Label Class>
Yes

$$$$
>  <Compound>
C=C(C(=O)OC)[C@@H]1C[C@@H](OC(C)=O)C2=C[C@H](C[C@@]3(C)O[C@@H]3C3=CC(C)=C(O3)[C@H]1OC(C)=O)OC2=O

>  <Label Class>
No

$$$$
>  <Compound>
CCCCC(=O)c1c(O)nc2sccn2c1=O

>  <Label Class>
No

$$$$
>  <Compound>
Clc1ccc(/C=C/c2nc3ccccc3s2)cc1Cl

>  <Label Class>
No

$$$$

[Q] Dear all, I need the recorded test outcome for CCOC(=O)C(NC(=O)c1cccc(Cl)c1)(N1CCN(c2cc3c(cc2F)c(=O)c(C(=O)O)cn3CC)CC1)C(F)(F)F (stereo not given) , thank you.
[A] No

[Q] Assay outcome for "C/C(=N\Nc1nc2ccccc2[nH]1)c1cnccn1" : what was it?
[A] Yes

====

GI50 overview
tested on: HT-29; test: NCI tumour cell line growth inhibition, 48 h
Active and inactive are the calls of the source. Rule as the data show it: active = GI50 up to about 1.1 µM and inactive = higher.

[Q] What measured GI50 goes with C1=C2/CC[C@H](Sc3ccccc3)C2C2(CCCCC/1)OCCO2 (stereo not given in full) ?
[A] 14.4 µM (inactive)

[Q] Item "O=C(O)c1cc(-c2ccc3c(O)c(O)ccc3c2)ccc1O" has what recorded GI50?
[A] 18.6 µM (inactive)

[Q] Look at this molecule and give its reported GI50. "CC1=CC(=O)/C(=C(/C)NCCN(CCN/C(C)=C2\C(=O)C=C(C)OC2=O)CCN/C(C)=C2\C(=O)C=C(C)OC2=O)C(=O)O1"
[A] > 100 µM (inactive)

[Q] Query: GI50; subject: "C/C(=C\Cc1cc(O)ccc1O)CCc1c(C)cc(O)c(C=O)c1C"
[A] 20.4 µM (inactive)

[Q] Please report the recorded GI50 for "C=CC[C@H]1[C@H](O[Si](C)(C)C(C)(C)C)C=CC(=O)[C@@H]1CC(=O)OCC" .
[A] 9.06 µM (inactive)

====

test system: MDA-MB-231; experiment: NCI tumour cell line growth inhibition, 48 h
Calls of active or inactive are those of the source. No stated cut-off is given here; in the data, active = GI50 up to about 1.1 µM and inactive = higher.
Metric Name: GI50

Use the examples below as a reference point.
>  <Compound>
CC1(C)OC2C(=O)C=C(COCc3ccccc3)C2O1 (stereo unspecified)

>  <GI50>
27.4 µM (inactive)

$$$$
>  <Compound>
CCOC(=O)C12OC(CCC1=O)C(C(=O)OC)=C2C(=O)OC (stereo unspecified)

>  <GI50>
> 10 µM (inactive)

$$$$
>  <Compound>
CON(C)C(=O)[C@H]1C[C@@]1(C)CO

>  <GI50>
> 100 µM (inactive)

$$$$
>  <Compound>
O=[N+]([O-])/C(C(Cl)=C(Cl)Cl)=C(\N1CCCCC1)n1nnc2ccccc21

>  <GI50>
17.3 µM (inactive)

$$$$
>  <Compound>
CN1C(c2ccccc2)CC(=NOCc2ccccc2)CC1c1ccccc1 (stereo unspecified)

>  <GI50>
43.7 µM (inactive)

$$$$

[Q] Which GI50 is listed for OC1CN2Cc3cc4c(cc3[C@]13C=C[C@@H](O)CC23)OCO4 (stereo partly specified) ?
[A] 59.3 µM (inactive)

[Q] Request the reported GI50 associated with CC(NNC(=O)c1cc[n+]([BH2-]C#N)cc1)c1ccccc1F (stereo unspecified)
[A] > 100 µM (inactive)

[Q] Which GI50 value belongs to "O=C1C=C(Br)c2c(Br)sc(Br)c21" ?
[A] 17.2 µM (inactive)

[Q] Which GI50 reading was recorded for the compound "O=c1[nH]nc(-c2ccccc2)c2[nH]c3c(c12)CCCc1ccccc1-3" ?
[A] 15.9 µM (inactive)

[Q] Sample "COC(=O)c1c(O)ccc2c1c1c(n2Cc2ccccn2)C(=O)c2ccccc2C1" — what was its GI50?
[A] > 100 µM (inactive)

====

test system: SK-OV-3; assay: NCI tumour cell line growth inhibition, 48 h
The source made the active and inactive calls. Rule as the data show it: active = GI50 up to about 1.1 µM and inactive = higher.
Select the matching outcome among yes (active), no (inactive)

Example entries begin here.
>  <Compound>
C/C(=N\Nc1nc2ccccc2[nH]1)c1cnccn1

>  <Label Class>
yes

$$$$
>  <Compound>
Cn1ccnc1CCc1ccc(Cl)c(Cl)c1

>  <Label Class>
no

$$$$
>  <Compound>
Cc1nc2ccccc2n1Cc1nnc(-c2ccccc2)o1

>  <Label Class>
no

$$$$
>  <Compound>
COc1ccc(NC(=O)C(=O)Cc2nc3ccc([N+](=O)[O-])cc3nc2O)c(OC)c1

>  <Label Class>
no

$$$$
>  <Compound>
CC(O[Si](c1ccccc1)(c1ccccc1)C(C)(C)C)[C@H](NC(=O)OC(C)(C)C)C(=O)O[Si](c1ccccc1)(c1ccccc1)C(C)(C)C (stereo not given in full)

>  <Label Class>
no

$$$$
>  <Compound>
NS(=O)(=O)c1ccc(/N=N/c2nc3[nH]cnc(=S)c3[nH]2)cc1

>  <Label Class>
yes

$$$$
>  <Compound>
Cc1csc2nc3[nH]ncc3c(=O)n12

>  <Label Class>
no

$$$$
>  <Compound>
O=C1OCC(C(=O)c2cccc(O)c2)C1=O (stereo not given)

>  <Label Class>
no

$$$$
>  <Compound>
COC1=CC(=O)C(O)=C(CC2(C)C(C)CCC3(C)C2CCCC3(C)C)C1=O (stereo not given)

>  <Label Class>
no

$$$$

[Q] Hi, do you know how "COc1ccc(-c2ccc(C(=O)C=P(c3ccccc3)(c3ccccc3)c3ccccc3)cc2)cc1" came out in this test?
[A] no

====

system: OVCAR-5; test: NCI tumour cell line growth inhibition, 48 h
Activity calls are given as the source filed them. Cut-off read from the data, not from the text of the source: active = GI50 up to about 1.1 µM and inactive = higher.
Metric Name: GI50

Worked cases, answers included:
>  <Molecule>
Nc1nc(Cl)c(N)c(NCC2(CO)CC(OCc3ccccc3)C2)n1 (stereo unspecified)

>  <GI50>
> 100 µM (inactive)

$$$$
>  <Molecule>
CC1(C)OC2C(=O)C=C(COCc3ccccc3)C2O1 (stereo unspecified)

>  <GI50>
31.1 µM (inactive)

$$$$
>  <Molecule>
O=C(c1ccccc1)n1c2ccc(Br)cc2c2nc3ccccc3nc21

>  <GI50>
> 100 µM (inactive)

$$$$
>  <Molecule>
O=C1CCCC2C3CC(CN12)C1CCCCN1C3.[O-][Cl+3]([O-])([O-])O (stereo unspecified)

>  <GI50>
> 100 µM (inactive)

$$$$

[Q] Record CC1(C)CC2(C)OC(=N)C1(C#N)C2(C#N)C#N (stereo unspecified) : what is its GI50 with OVCAR-5?
[A] 14.3 µM (inactive)

[Q] Recorded GI50 for COc1cc(C2C(Cl)C(=O)N2n2cnc3ccccc3c2=O)ccc1O (stereo unspecified) with OVCAR-5, please?
[A] > 100 µM (inactive)

[Q] Quick check: GI50 on OVCAR-5, item "O=C1O/C(=C(/Cl)c2c3ccccc3cc3ccccc23)c2ccccc21" ?
[A] 33.2 µM (inactive)

[Q] # value lookup — system OVCAR-5, readout GI50, item "C[C@@]1(CCCCCCCCCCc2ccccc2)C[C@@]2(C)OC(=O)C[C@H]2OO1"
[A] 1.76 µM (inactive)

====

system: DU-145; assay: NCI tumour cell line growth inhibition, 48 h
Active and inactive are the calls of the source. Rule as the data show it: active = GI50 up to about 1.1 µM and inactive = higher.
Pick one: t for active, f for inactive

Use the examples below as a reference point.
>  <Compound>
Cc1ccc(S(=O)(=O)n2c3c(c4ccccc42)CCN2C(=O)C(S(=O)(=O)c4ccccc4)=CCC32)cc1 (stereo not given)

>  <Label Class>
t

$$$$
>  <Compound>
NS(=O)(=O)c1ccc(/N=N/c2nc3[nH]cnc(=S)c3[nH]2)cc1

>  <Label Class>
t

$$$$
>  <Compound>
COc1cc2c(cc1OC)CN1CCc3ccccc3CC1C2 (stereo not given)

>  <Label Class>
f

$$$$
>  <Compound>
COc1ccc(NC(=O)CC(=O)n2nc(-c3ccccc3)c(/N=N/c3ccccc3C)c2-c2ccccc2)cc1

>  <Label Class>
f

$$$$
>  <Compound>
CN1C/C(=C\c2cccs2)C(O)/C(=C/c2cccs2)C1 (stereo not given)

>  <Label Class>
f

$$$$
>  <Compound>
O=C(c1ccccc1)n1c2ccc(Br)cc2c2nc3ccccc3nc21

>  <Label Class>
f

$$$$
>  <Compound>
Cc1ccc(/N=N/c2ccc(N)cc2C)c(S(N)(=O)=O)c1

>  <Label Class>
f

$$$$
>  <Compound>
CC(NNC(=O)c1cc[n+]([BH2-]C#N)cc1)c1ccccc1F (stereo not given)

>  <Label Class>
f

$$$$
>  <Compound>
O=C(n1[nH]c(=O)n(-c2ccc([N+](=O)[O-])cc2)c1=O)C(Cl)(Cl)Cl

>  <Label Class>
f

$$$$

Now examine the next entry.
[Q] Recorded call for "CNC(=S)N(C1CCCCC1)C1CCCCC1" ?
[A] f
